Test system: L6
Assay Info: Cytotoxicity against rat L6 cells after 72 hrs by Alamar Blue assay
Type: cell-based
Experimental Parameters: l6
Assay Readout: IC50 (µM)
Give just the number in µM; leave the unit off.

Inquiry: Input COC1=C2C[C@@H](C)C[C@H](OC)[C@H](O)[C@@H](C)/C=C(\C)[C@H](OC(N)=O)[C@@H](OC)/C=C\C=C(/C)C(=O)NC(=CC1=O)C2=O , output reported IC50.
Reply text: 6
